Here, each record is paired with measured melting point data.
RESULT TYPE: melting point

* COC(=O)c1cc(Cl)c2cc(Br)ccc2n1 | 163 to 165 °C
* Nc1ccc(Cl)c(S(=O)(=O)N2CCOCC2)c1 | 157 to 159 °C
* NC(=S)C1CC1 | 112 to 114 °C
* Cc1cc(C(N)=O)c2ccccc2n1 | 246 to 248 °C
* CCCC1(CCC)NC(=O)NC1=O | 205 to 207 °C
* CS(=O)(=O)c1ccccc1Br | 107 to 109 °C
* CCOC(=O)N1CCc2nnc(Cl)cc2C1 | 106 to 108 °C
* CC(Oc1ccc(C#N)cc1)C(=O)O (configuration not stated) | 158 to 160 °C
* Cc1ccc(S(=O)(=O)N2CCCCC2)cc1N | 106 to 110 °C
* CN1C(=O)NC(=O)C12CCCCC2 | 172 to 174 °C
* Cc1cc(SC(C)(C)C)ccc1N | 69 to 71 °C
* CCCCn1c(N)cc(=O)n(C)c1=O | 92 to 94 °C
* CN(CC(=O)O)c1nc2ccccc2s1 | 165 to 167 °C
* Cc1ccc(Br)cc1NC(=O)CN | 141 to 143 °C
* Fc1cccc(-n2nnnc2S)c1 | 128 to 146 °C
* Cc1nc(O)nc(C)c1Br | 210 to 212 °C
* Cn1cnc(-c2ccc(F)cc2)c1N | 148 to 150 °C
* Nc1cccc(CS(=O)(=O)C2CCCCC2)c1 | 106 to 108 °C
* CN(c1ccc(O)cc1)S(=O)(=O)c1ccc(Cl)cc1 | 154 to 156 °C
* CSc1ccc(Cl)nn1 | 104 to 106 °C
* Cc1ccc(C)c(S(N)(=O)=O)c1 | 149 to 151 °C
* O=C(O)c1ccc(OCc2ccncc2)cc1 | 278 to 280 °C
* CCS(=O)(=O)c1nc2ccc(N)cc2s1 | 90 to 92 °C
* CCOC(=O)c1ncon1 | 31 to 33 °C
* COc1cc(C#N)ccn1 | 94 to 96 °C
* CCc1c[nH]c(S)n1 | 163 to 165 °C
* O=C1c2ccccc2C(=O)N1CC1CO1 (configuration not stated) | 98 to 100 °C
* O=C(O)C1CSC2(c3ccccc3)CCC(=O)N12 (configuration not stated) | 173 to 175 °C
* CN(C)c1ccc(C2=CCNC2)cc1 | 99 to 101 °C
* Nc1cnccc1-n1ccnc1 | 134 to 136 °C
* Cc1ccc(C(=O)CC#N)cc1F | 82 to 84 °C
* CNC(=Nc1cc(C)nn1-c1ccccc1)c1ccc(F)cc1 | 227 to 228 °C
* COc1ccccc1Nc1ccc(N)cc1 | 73 to 75 °C
* CC1CCCC(NC(=O)NC(=O)CCl)C1C (configuration not stated) | 131 to 133 °C
* COc1cc(S(=O)(=O)Cl)ccc1[N+](=O)[O-] | 75 to 77 °C
* Cc1oc(-c2ccco2)nc1CC(=O)O | 176 to 178 °C
* O=C1CCCc2c(Cl)sc(Cl)c21 | 37 to 39 °C
* O=C(CCl)NNC(=O)C1CC1 | 185 to 187 °C
* Cc1cc(Br)c(O)c([N+](=O)[O-])c1 | 84 to 86 °C
* O=C(O)c1cccc(OCC2CCCO2)c1 (configuration not stated) | 86 to 88 °C
* CC(C)C(NC(=O)Cc1ccccc1)C(=O)O (configuration not stated) | 110 to 112 °C
* Cc1nc(N)cc(Cl)n1 | 191 to 193 °C
* COc1ccc(-c2csc(NC(=O)CCl)n2)c(OC)c1 | 109 to 111 °C
* Cc1cc(N(C)C)ccc1C#N | 59 to 61 °C
* CC(C)Cn1c(S)nnc1N1CCOCC1 | < 17 °C
* Cc1ccc(S(=O)(=O)N2CCCCC2)cc1S(=O)(=O)Cl | 154 to 156 °C
* CC(C)(C)c1ccc(C2CCCC(O)C2)cc1 (configuration not stated) | 75 to 77 °C
* Nc1ccccc1NC(=O)Cc1cccs1 | 163 to 165 °C
* CC(C)C(Br)C(=O)Nc1ccccc1C(F)(F)F (configuration not stated) | 123 to 125 °C
* Nc1nnn[nH]1 | 200 to 204 °C
* O=Cc1cn(-c2ccc(F)c(Cl)c2)nn1 | 148 to 150 °C
* Cc1cc(Br)cc2c(O)c(C(=O)O)cnc12 | 299 to 301 °C
* CN(C)S(=O)(=O)c1ccc(NC(=O)CCCl)cc1 | 159 to 161 °C
* Cc1ccc(S(=O)(=O)CC(C)O)cc1 (configuration not stated) | 76 to 78 °C
* Cc1ccc(S(=O)(=O)Nc2cc(Cl)ccc2C(=O)O)cc1 | 205 to 207 °C
* Cc1nc(Cc2nnc(S)o2)cs1 | 194 to 196 °C
* Nc1ccc(N2CCOCC2)cc1C(F)(F)F | 74 to 76 °C
